Data origin, for the record: PubChem BioAssay (Tox21)

Experiment: qHTS assay to identify small molecule antagonists of the retinoid acid receptor (RAR) signaling pathway - cell viability counter screen (AID 1159551); note: nearly all actives have a fitted effect of over 35% in size
Conditions: C3RL4 cells viability, ATP luminescence (CellTiter-Glo), 6 h; series mostly up to 92.4 µM
Procedure: U.S. Tox21 Program National Center for Advancing Translational Sciences [NCATS] NIH Chemical Genomics Center [NCGC] U.S. Environmental Protection Agency [EPA] National Institutes of Environmental Health Sciences [NIEHS] National Toxicology Program [NTP] U.S. Food and Drug Administration [FDA] […] Also cytotoxicity was assessed by determining the viability of cells based on the quantitation of ATP. […]
Inconclusive results are not listed. The source made the active and inactive calls. Calls come from the whole dose curve; as a rule, active = well fitted cell-killing curve with a large enough effect in the repeat runs; inconclusive = weak or mixed curves, or effect the other way; inactive = flat fitted curve, though single readings scatter.
Answer with one of the outcomes active, inactive

Use these answered entries as a reference point.
- compound: "CC1(C)C(/C=C(\\Cl)C(F)(F)F)C1C(=O)OC(C#N)c1cccc(Oc2ccccc2)c1 (stereo not drawn)"
  cat: "inactive"
- compound: "CCCCOP(=O)(CCCC)OCCCC"
  cat: "inactive"
- compound: "O=[N+]([O-])c1c2ccccc2cc2ccccc12"
  cat: "inactive"
- compound: "O=c1oc2ccccc2c(O)c1Cc1c(O)c2ccccc2oc1=O"
  cat: "inactive"
- compound: "C=CC(=O)N(C)C"
  cat: "inactive"

How was C[C@@H]1CC[C@@]2(OC1)O[C@H]1[C@@H](O)[C@H]3[C@@H]4CC[C@H]5C[C@@H](O[C@@H]6O[C@H](CO)[C@H](O[C@@H]7O[C@H](CO)[C@@H](O)[C@H](O[C@@H]8OC[C@@H](O)[C@H](O)[C@H]8O)[C@H]7O[C@@H]7O[C@H](CO)[C@@H](O)[C@H](O[C@@H]8O[C@H](CO)[C@@H](O)[C@H](O)[C@H]8O)[C@H]7O)[C@H](O)[C@H]6O)[C@H](O)C[C@]5(C)[C@H]4CC[C@]3(C)[C@H]1[C@@H]2C classified in this test?
active

How was O=c1ssc(Cl)c1Cl classified in this test?
active

How was COP(=O)(OC)SCn1c(=O)oc2cc(Cl)cnc21 classified in this test?
inactive

====

Test: qHTS RealTime-Glo MT Cell Viability Assay in HEK293 cells - 32 hour (AID 1224868); note: nearly all actives have a fitted effect of over 50% in size
Settings: RealTime-Glo luminescence; series mostly up to 76.8 µM
Records with an inconclusive call do not appear. Activity calls are given as the source filed them. Calls follow the shape of the dose curve; as a rule, active = well fitted cell-killing curve with a large enough effect in the repeat runs; inconclusive = weak or mixed curves, or effect the other way; inactive = flat fitted curve, though single readings scatter.
Answer with one of the outcomes active, inactive

- structureSmiles: "CC1(C)CN=C(NN=C(/C=C/c2ccc(C(F)(F)F)cc2)/C=C/c2ccc(C(F)(F)F)cc2)NC1"
  cat: "active"
- structureSmiles: "CCS(=O)(=O)c1cccnc1S(=O)(=O)NC(=O)Nc1nc(OC)cc(OC)n1"
  cat: "inactive"
- structureSmiles: "COc1cc(C=O)cc2c1[C@H](COC(N)=O)[C@]1(OC(C)=O)ON2C[C@H]2[C@@H]1N2C(C)=O"
  cat: "active"
- structureSmiles: "O=[N+]([O-])O.O=[N+]([O-])O.[Cd]"
  cat: "active"

How was Oc1ccc(C2(c3ccc(O)cc3)CCCCC2)cc1 classified in this test?
active

How was CC(c1ccc(O)cc1)c1ccc(O)cc1 classified in this test?
active

====

Experiment: qHTS assay for small molecule disruptors of the mitochondrial membrane potential (AID 720635); note: potency is the fitted concentration of half-maximal effect
Details: HepG2 mitochondrial membrane potential, Mito-MPS dye ratio; series mostly up to 83.2 µM
Inconclusive results are not listed. Calls of active or inactive are those of the source. Calls follow the shape of the dose curve; as a rule, active = well fitted inhibition curve with a large enough effect in the signal ratio in the repeat runs; inconclusive = weak or mixed curves, or effect the other way; inactive = flat fitted curve, though single readings scatter; the % refers to the signal ratio.
endpoint: Potency

Below, each entry is followed by its recorded Potency result.
- molecule: "C[C@@H]1CC[C@@]2(OC1)O[C@H]1[C@@H](O)[C@H]3[C@@H]4CC[C@H]5C[C@@H](O[C@@H]6O[C@H](CO)[C@H](O[C@@H]7O[C@H](CO)[C@@H](O)[C@H](O[C@@H]8OC[C@@H](O)[C@H](O)[C@H]8O)[C@H]7O[C@@H]7O[C@H](CO)[C@@H](O)[C@H](O[C@@H]8O[C@H](CO)[C@@H](O)[C@H](O)[C@H]8O)[C@H]7O)[C@H](O)[C@H]6O)[C@H](O)C[C@]5(C)[C@H]4CC[C@]3(C)[C@H]1[C@@H]2C"
  experimentalResult: "4.59 µM (active)"
- molecule: "O=c1ssc(Cl)c1Cl"
  experimentalResult: "30.6 µM (active)"
- molecule: "CC(=O)C(Cl)(Cl)Cl"
  experimentalResult: "0.743 µM (active)"
- molecule: "COc1ccc(OC)c(CC(C)N)c1 (stereo not drawn)"
  experimentalResult: "inactive"
- molecule: "S=C(SSC(=S)N1CCCCC1)N1CCCCC1"
  experimentalResult: "inactive"
- molecule: "O=[N+]([O-])c1ccc(Oc2ccc(C(F)(F)F)cc2[N+](=O)[O-])cc1"
  experimentalResult: "12.2 µM (active)"
- molecule: "CC1(C)CN=C(NN=C(/C=C/c2ccc(C(F)(F)F)cc2)/C=C/c2ccc(C(F)(F)F)cc2)NC1"
  experimentalResult: "17.2 µM (active)"

Query molecule follows.
Bench note: what Potency did CC1(C)C(/C=C(\Cl)C(F)(F)F)C1C(=O)OC(C#N)c1cccc(Oc2ccccc2)c1 (stereo not drawn) show?
34.9 µM (active)

====

Molecular target: Cytochrome P450 1A2 (Homo sapiens)
Assay: Cytochrome P450 Family 1 Subfamily A Member 2 (CYP1A2) small molecule antagonists: luciferase reporter qHTS assay (AID 1671199); note: nearly all actives have a fitted effect of over 50% in size; note: potency is the fitted concentration of half-maximal effect
Conditions: P450-Glo CYP1A2 enzyme, luciferin luminescence, 1 h; series mostly up to 115 µM
Records with an inconclusive call do not appear. Calls of active or inactive are those of the source. The call rests on the fitted dose curve; in most records, active means well fitted inhibition curve with a large enough effect in the repeat runs; inconclusive means weak or mixed curves; inactive means no such curve, though single readings can be large or run the other way.
endpoint: Potency

Below, each entry is followed by its recorded Potency result.
- molecule: "COc1cc(C=O)cc2c1[C@H](COC(N)=O)[C@]1(OC(C)=O)ON2C[C@H]2[C@@H]1N2C(C)=O"
  studySystem: "Cytochrome P450 1A2 (Homo sapiens)"
  experimentalResult: "inactive"
- molecule: "N#Cc1ccccc1Cl"
  studySystem: "Cytochrome P450 1A2 (Homo sapiens)"
  experimentalResult: "inactive"
- molecule: "C[C@@H]1CC[C@@]2(OC1)O[C@H]1[C@@H](O)[C@H]3[C@@H]4CC[C@H]5C[C@@H](O[C@@H]6O[C@H](CO)[C@H](O[C@@H]7O[C@H](CO)[C@@H](O)[C@H](O[C@@H]8OC[C@@H](O)[C@H](O)[C@H]8O)[C@H]7O[C@@H]7O[C@H](CO)[C@@H](O)[C@H](O[C@@H]8O[C@H](CO)[C@@H](O)[C@H](O)[C@H]8O)[C@H]7O)[C@H](O)[C@H]6O)[C@H](O)C[C@]5(C)[C@H]4CC[C@]3(C)[C@H]1[C@@H]2C"
  studySystem: "Cytochrome P450 1A2 (Homo sapiens)"
  experimentalResult: "inactive"
- molecule: "Nc1ccccc1C(=O)Oc1ccc2ccccc2c1"
  studySystem: "Cytochrome P450 1A2 (Homo sapiens)"
  experimentalResult: "14.2 µM (active)"
- molecule: "N#Cc1ccc(O)cc1"
  studySystem: "Cytochrome P450 1A2 (Homo sapiens)"
  experimentalResult: "inactive"

Bench note: what Potency did N#CNC#N show?
inactive

Bench note: what Potency did O=C1c2ccccc2C(=O)C1C(=O)C(c1ccccc1)c1ccc(Cl)cc1 (stereo not drawn) show?
20 µM (active)

Bench note: what Potency did CC(C)(C)c1cc([N+](=O)[O-])cc(C(C)(C)C)c1O show?
31.7 µM (active)

Bench note: what Potency did c1ccc2c(c1)OCC(C1=NCCN1)O2 (stereo not drawn) show?
inactive

Bench note: what Potency did CS(=O)(=O)c1ccc(C(=O)C2C(=O)CCCC2=O)c([N+](=O)[O-])c1 show?
50.3 µM (active)

Bench note: what Potency did Oc1ccc2ccc3cccc4ccc1c2c34 show?
0.894 µM (active)

Bench note: what Potency did N#Cc1c(-c2ccc(Cl)cc2)[nH]c(C(F)(F)F)c1Br show?
0.317 µM (active)

Bench note: what Potency did Cc1ccc(C(=O)Cl)cc1 show?
inactive

====

Test: Human pregnane X receptor (PXR) small molecule agonists, qHTS cell viability counter screen (AID 1346977); note: nearly all actives have a fitted effect of over 50% in size
Conditions: PXR-Luc HepG2 viability, CellTiter-Fluor, 24 h; series mostly up to 92.4 µM
Excerpt: U.S. Tox21 Program National Center for Advancing Translational Sciences [NCATS] NIH Chemical Genomics Center [NCGC] U.S. Environmental Protection Agency [EPA] National Institutes of Environmental Health Sciences [NIEHS] National Toxicology Program [NTP] U.S. Food and Drug Administration [FDA] […]
Inconclusive results are not listed. Activity calls are given as the source filed them. Calls follow the shape of the dose curve; as a rule, active = well fitted cell-killing curve with a large enough effect in the repeat runs; inconclusive = weak or mixed curves, or effect the other way; inactive = flat fitted curve, though single readings scatter.
Answer with one of the outcomes 1 (yes) for active, 0 (no) for inactive

- compound: "ClCCN1CCOCC1"
  cat: "0 (no)"
- compound: "CN(CCCC(O)c1cccnc1)N=O (configuration not stated)"
  cat: "0 (no)"
- compound: "O=C(NC(=O)c1c(F)cccc1F)Nc1cc(Cl)c(OC(F)(F)C(F)F)c(Cl)c1"
  cat: "0 (no)"
- compound: "Clc1ccc(C(c2ccc(Cl)cc2)C(Cl)(Cl)Cl)cc1"
  cat: "0 (no)"
- compound: "Cc1c(Cl)c(=O)oc2cc(OP(=O)(OCCCl)OCCCl)ccc12"
  cat: "0 (no)"

How was CN(C)C(=S)[S-].CN(C)C(=S)[S-].[Cu+2] classified in this test?
1 (yes)

How was CCSC(C)CC1CC(=O)C(/C(CC)=N/OC/C=C/Cl)=C(O)C1 (configuration not stated) classified in this test?
0 (no)

How was O=C(CCCN1CCC2(CC1)C(=O)NCN2c1ccccc1)c1ccc(F)cc1 classified in this test?
1 (yes)
